- procedure_details: Antagonist activity at P2Y12 receptor assessed as inhibition of ADP-induced human platelet aggregation by washed platelet assay
pIC50: −log10 of the molar value.
assay_readout: pIC50

- compound: "O=c1ccn([C@@H]2O[C@H](COP(=O)(O)OP(=O)(O)OP(=O)(O)OP(=O)(O)OC[C@@H]3O[C@H](n4ccc(=O)[nH]c4=O)[C@@H](O)[C@H]3O)[C@@H]3OC(c4ccccc4)O[C@H]32)c(=O)[nH]1 (some centres undefined)"
  value_measured: 4.78

I: O=C(Nc1ncnc2c1ncn2[C@@H]1O[C@H](COP(=O)(O)O)[C@H]2OC(Cc3ccccc3)O[C@H]21)NC1CCCC1 (some centres undefined)
II: O=c1ccn([C@@H]2O[C@H](COP(=O)(O)OP(=O)(O)OP(=O)(O)OC[C@@H]3O[C@H](n4ccc(=O)[nH]c4=O)[C@H]4OC(Cc5ccccc5)O[C@H]43)[C@H]3OC(Cc4ccccc4)O[C@H]32)c(=O)[nH]1 (some centres undefined)
III: CCCCCCCC1O[C@@H]2[C@H](O1)[C@@H](COP(=O)(O)OP(=O)(O)OP(=O)(O)OP(=O)(O)OC[C@@H]1O[C@H](n3ccc(=O)[nH]c3=O)[C@H]3OC(CCCCCCC)O[C@H]31)O[C@H]2n1ccc(=O)[nH]c1=O (some centres undefined)
QUERY: Output the entries ranked by pIC50 from maximum down to minimum. Ranked list of labels, please, in the requested order.
RESULT: I, II, III
(I: 7.44, II: 5.33, III: 4.97)
